Data origin: the PETadex activity labels (doi:10.1021/acsomega.4c04843)

Substrate: PET
Test: Proxy for plastic degradation [Released monomer concentration (HPLC/LC-MS) (TPA)]
Conditions: pH 8
measureName: Proxy for plastic degradation (mM/mg)
Numbers only, in mM/mg.

>  <protein>
unnamed (protein) MFRFHIVSALLTLFIAVPSQAHDVGQREIKISGAEPGRNLEVSVWYPAAIDGKATLIGDNIIFKGAPAVIDATPEKGSFPLLVMSHGSGGRAQGMAWLATELVKAGIIVAAPNHPGTTSGDSTPQDTPKIWQRTGDLSAVIDTMTTDPAWSGIIDKNKISVLGFSMGGAAAMEIAGARANLEAYARYCDTYGKWDCAWYAGGIGYRDDKQIKVDKVDLRSVDKSRFEQSNLDRRIASAIMIDPGLAQAYDAQSLASISIPMSFINLGEVETIPTGVVADKLASITPQGTYVTVAGATHWSFLPECKKGAADRLKSAGEVDPICSDDARRPRADIHADITKLVLKALQSMPKT

>  <unitsLabel>
mM/mg

>  <Proxy for plastic degradation>
2.3

$$$$

In the following, a different protein is considered.
Return reported Proxy for plastic degradation; argument: unnamed (protein) MFRFHIVSALLTLFIAVPSQAHDVGQREIKISGAEPGRNLEVSVWYPAAIDGKATLIGDNIIFKGAPAVIDATPEKGSFPLLVMSHGSGGRAQGMAWLATELVKAGIIVAAPNHPGTTSGDSTPQDTPKIWQRTGDLSAVIDTMTTDPAWSGIIDKNKISVLGFSMGGAAAMEIAGARANLEAYARYCDTYGKWDCAWYAGGIGYRDDKQIKVDKVDLRSVDKSRFEQSNLDRRIASAIMIDPGLAQAYDAQSLASISIPMSFINLGEVETIPTGVVADKLASITPQGTYVTVDGATHFSFLPECKKGAADRLKSAGEVDPICSDDARRPRADIHADITKLVLKALQSMPKT
2.6
